# method: Selectivity index, ratio of IC50 for rat L6 cells to IC50 for amastigotes of Leishmania donovani MHOM/ET/67/L82
# Format: toxicity, cell-based
# particulars: read-out: Ratio IC50
measured-metric: selectivity ratio

Sample records with selectivity ratio:
COc1cccc2c1C(=O)C(Oc1ccc(C)cc1)=CC2=O | 0.07
CC(=O)Nc1ccc(OC2=CC(=O)c3cc4ccccc4cc3C2=O)cc1 | 0.06
O=C1C=C(Oc2ccc(F)cc2)C(=O)c2ccccc21 | 2.47
COc1ccc(OC2=CC(=O)c3c(OC)cccc3C2=O)cc1 | 0.51

The record that follows has no selectivity ratio shown yet.
Problem: Name the recorded selectivity ratio of the compound listed here: Cc1ccc(OC2=CC(=O)c3ccccc3C2=O)cc1
Result: 1.12

###

# method: Selectivity index, ratio of IC50 for rat L6 cells to IC50 for trypomastigote forms of Trypanosoma cruzi Tulahuen C4
# Type: toxicity, cell-based
# particulars: read-out: Ratio IC50
Field: label. Allowed values: Fulfilled (selectivity ratio < 1) or Not fulfilled (selectivity ratio >= 1).

Example entries begin here.
CC(=O)Nc1ccc(OC2=CC(=O)c3ccccc3C2=O)cc1 | Fulfilled
Cc1ccc(OC2=CC(=O)c3cccc(O)c3C2=O)cc1 | Fulfilled
COc1cccc2c1C(=O)C=C(Oc1ccc(NC(C)=O)cc1)C2=O | Not fulfilled
COc1ccc(OC2=CC(=O)c3ccccc3C2=O)cc1 | Not fulfilled
Cc1ccc(OC2=CC(=O)c3ccccc3C2=O)cc1 | Not fulfilled

Problem: For this molecule, is selectivity ratio lower than 1? O=C1C=C(Oc2ccc(F)cc2)C(=O)c2ccccc21
Result: Not fulfilled

###

# Species on record: Bos taurus
# method: Inhibition of electron transport protein complex 2 in bovine hear mitochondria assessed as reduction of succinate-induced oxygen consumption at 5 uM
Active and inactive are the calls of the source. The rule behind the calls is not given here.
measured-metric: inhibition

COc1cccc2c1C(=O)C(Oc1ccc(F)cc1)=CC2=O | inactive
Cc1ccc(OC2=CC(=O)c3ccccc3C2=O)cc1 | inactive
COc1cccc2c1C(=O)C(Oc1ccccc1)=CC2=O | inactive
Cc1ccc(OC2=CC(=O)c3cc4ccccc4cc3C2=O)cc1 | inactive
COc1cccc2c1C(=O)C(Oc1ccc(C)cc1)=CC2=O | inactive

Problem: Name the recorded inhibition of the compound listed here: O=C1C=C(Oc2ccc(F)cc2)C(=O)c2ccccc21
Result: inactive

###

# System: IGROV-1
# method: Selectivity index, ratio of IC50 for HDF to IC50 for human IGROV1 cells
measured-metric: Ratio IC50

Sample records with Ratio IC50:
O=C1C=C(Oc2ccccc2)C(=O)c2ccccc21 | 2.87
COc1ccc(OC2=CC(=O)c3cc4ccccc4cc3C2=O)cc1 | 7.4
COc1cccc2c1C(=O)C(Oc1ccc(F)cc1)=CC2=O | 6.87

Problem: Name the recorded Ratio IC50 of the compound listed here: O=C1C(Oc2ccccc2)=CC(=O)c2c(O)cccc21
Result: 5.96

###

# System: Trypanosoma brucei
# method: Inhibition of recombinant Trypanosoma brucei GAPDH assessed as oxidative phosphorylation of D-glyceraldehyde-3-phosphate to 1,3-bisphosphoglycerate at 5 uM by spectrophotometric method relative to 2-phenoxy-1,4-naphthoquinone
I would appreciate it if you labelled entries Satisfied when inhibition is 70% or higher, otherwise Not satisfied.

O=C1C(Oc2ccc(F)cc2)=CC(=O)c2c(O)cccc21 | Satisfied
COc1ccc(OC2=CC(=O)c3c(OC)cccc3C2=O)cc1 | Not satisfied
COc1ccc(OC2=CC(=O)c3cc4ccccc4cc3C2=O)cc1 | Satisfied
CC(=O)Nc1ccc(OC2=CC(=O)c3cc4ccccc4cc3C2=O)cc1 | Satisfied

Note: attention shifts to another entry.
Problem: Evaluate COc1ccc(OC2=CC(=O)c3ccccc3C2=O)cc1 : inhibition at minimum 70%?
Result: Not satisfied
